Cited source for all entries: the supplement of paper PMC12764529

assay: folding stability dG unfold (combined trypsin and chymotrypsin); higher = more stable
measured_metric: folding stability dG unfold (kcal/mol)
Answer with a number only, understood to be in kcal/mol.

Example results:
1. SPKELEFKHPDNGMEVKIRLDPNQGRIEIEVRPPNGPPVKMDMEVTDDRIKIDIYYPGGRPMMQLEFPLPSA [r9_665_TrROS] ... 2.88
2. SAGGMKIEFDEKTKRITITLPDGKKVEIELKDGRKVEITFERVDGKLKVVIKHKNEEEALELAKKLLSAGGS [r16_623_TrROS_Hall] ... 1.55

Kindly review the next sequence as well.
Enquiry: Entry under review: SAGAVRPDEPVTVTVTVEVDPETGFVRVTFDAAAPDGITVEALIPPDGPVLVRVRRPGSRETVEVVLPASAG [r5_55_TrMRF] . Reported folding stability dG unfold?
Return: 3.06

====

assay: folding stability dG unfold from trypsin proteolysis; higher = more stable
measured_metric: folding stability dG unfold (kJ/mol)
Answer with a number only, understood to be in kJ/mol.

1. SAGWIIRITLPDNGRTIEIDFENGYIIKITSPDEGKPRVIPIPPDDIREWIKELFPGPVRIVEIYPLPKSAG [r5_519_TrROS] ... 9.26
2. SAGGSAGGSAGMKPGQVVIYKIKIPLPDDGEPLFEIPIMYPVGMPEEQAKDFAKEFADKFSAGGSAGGSAGG [r11_516_TrROS] ... -1.71
3. SKPIPVKITIETKTNPNGEPITTITIDKGDKTYSLPLGNAKILEIDPEKQYIIIYNPETGSILILKPSDLSA [r9_1186_TrMRF] ... 10.6

Enquiry: Entry under review: SAGGSAMVVIRTTKPGGKVEVLAVNPEDGSKTVKTFSSSTSPKEVFEEVNKEFGGEVKVEKVELKASAGGSA [r15_544_TrMRF] . Reported folding stability dG unfold?
Return: -1.84

====

assay: folding stability dG unfold (combined trypsin and chymotrypsin); higher = more stable
Parameter folding stability dG unfold: see the listing below.
A bare number is not enough; add the unit after it.

1. SAGGSAGGSMTPANVVRIEPSPDGILRVTLTHPDGTVTTVEVSPDNLDIGAPDNVTDVTLAPVSAGGSAGGS [r20_194_TrMRF] ... 1.44 kcal/mol
2. SAGGMEEVIKELAKSLGVTKILPESEAKKLSSSVPNALAAVKLPDGSYVLIKRNSDGSVSSIKYKLESAGGS [r16_686_JUSTAS] ... 1.54 kcal/mol
3. SAGPLTVTVEGDTLTVTVPLTDVPADATVRVTVTVGDKTEEYTVPPSESITVTVPSSAVEVTVERLPPASAG [r5_867_JUSTAS] ... 2.36 kcal/mol

Kindly review the next sequence as well.
Enquiry: Entry under review: SAGGSAGGSYLDPNKVYLVETEVVGDKVVFTLRDPETGETFVLEADASKEVLKPGDRVLALVASAGGSAGGS [r12_525_TrMRF] . Reported folding stability dG unfold?
Return: 1.82 kcal/mol

====

assay: folding stability dG unfold from trypsin proteolysis; higher = more stable
Could you label it class 1 if measured folding stability dG unfold is 2 kJ/mol or higher, and class 0 otherwise?

1. SAGGSAGGSAGGFVEKYPDGVIVEKDPNNDSGTVKKVTTTKDPNTNKPTSKVTVTPISKLSAGGSAGGSAGG [r7_181_JUSTAS] ... class 0

Enquiry: Is folding stability dG unfold at least 2 kJ/mol? Consider SAGGGLTEEQLEEEAREVAERVEKEFAEATGIEPVEILSVEVFPDGTVRITLRFKGKGGLVTYTIPLSAGGS [r16_622_TrMRF]
Return: class 1

Enquiry: Here is the next sequence: SPRIKIDIPFFNANGHPQEVEIEYSPTDGMLMIKFPRNGYYIMIQIKRIEWEDGKLEIELDIFIMPPGDFSA [r9_587_TrROS]
Return: class 1

Enquiry: Here is the next sequence: SMLYRVTTVVVRGDRPLVIPVLADSLEAFLEEAREAIPPELREELPPDAVVRVFVEPVPAVVPEPGEPLPSA [r9_111_TrMRF]
Return: class 1

Enquiry: Here is the next sequence: SAGGSAGGSVRIPGGQPNTKVTVTVRLPDGTPVEVEATVNPSGEITLDLPDVSPDLIESIELSSAGGSAGGS [r12_477_JUSTAS]
Return: class 1

Enquiry: Here is the next sequence: SAGGSAGGSAGSVEEIESPDGTKTLVTKEPDSIKTTVTKPGGIPTLVTIDSKTGKWSVSLSAGGSAGGSAGG [r11_590_JUSTAS]
Return: class 0

Enquiry: Here is the next sequence: SMETLEIEITVKVEKDENGKIRKVSVEELKEELEKAGFKITEIEITEVTENTVKIKIKIEKPEEEEEEEESA [r9_225_TrROS_Hall]
Return: class 1
